- Tgt: T1, His-tagged human LILRB2 polypeptide (human, UniProt Q8N423 22-460)
- T1 construct: SPR analyte; also called His-tagged human LILBR2 polypeptide; not shown: His tag
- Measurement Notes: SPR, antibody on CM5 chip, His-LILRB2 analyte, 1:1 model
// values below are reported koff
// units = s⁻¹; emit number, no label

Antibody 12D8 (antibody, V domains shown, Mouse hybridoma mAb purified from ascites) VH: QVQLRQSGPGLVQPSQSLSITCTVSGFSLTSYGVHWVRQSPGKGLEWLGVIWSGGITDYNAAFISRLSISKDNSKSQVFFRMNSLQTNDTAIYYCAREIYGNPDYWGQGTTLTVSS VL: DIVMTQSHKFMSTSVGDRVSITCKASQDVSIAVAWFQQKPGQSPKLLIYSASYRYTGVPDRFSGSGSGTDFTFTISSVQAEDLAVYYCQQHYSTPRTFGGGTKLEIK; 0.00014

Request the reported koff associated with Antibody 9H6 (antibody, V domains shown, Mouse hybridoma mAb purified from ascites) VH: EVQLQQSGAELVRPGALVKLSCKASGFNVKDYYMHWVKQRPEQGLEWIGWIDPKNGNGIYDPKFQGKASITADTSSNTAYLQLSSLTSEDTSVYYCARGDYFGSSYLFAYWGQGTLVTVSA VL: DIVMTQSHKFMSTSVGDRVSITCKASQDVSTAVAWYQQKPGQSPKLLIYSASYRYTGVPDRFTGSGSGTDFTFTISSVQAEDLAVYYCQQHYSTPWTFGGGAKLEIK
4.72e-06
